target: GPCR GPR40 (Rattus norvegicus); assay: In vitro FLIPR assay with recombinant cells which express the GPCR GPR40; conditions: recombinant HEK293 cells expressing GPR40; agonist-induced change in intracellular Ca2+ (Fluo-4, FLIPR); 100% = 10 μM reference agonist linoleic acid
Decision: EC50 beneath 700 nM gives Met; EC50 meeting or exceeding 700 nM gives Not met.

Check out these entries, answers already filled in.
>>> print(df.to_string())
                                   molecule                    assay_system  group_label
0  CC#CC(CC(=O)O)c1ccc(OCC2(COc3ccccc3)CCC2)cc1 (stereo not drawn) [Example 8]  GPCR GPR40 (Rattus norvegicus)          Met
1  CC#CC(CC(=O)O)c1ccc(OCC2(COc3ccc(C(F)(F)F)cc3Cl)CC2)cc1 (stereo not drawn) [Example 15]  GPCR GPR40 (Rattus norvegicus)      Not met
2  CC#CC(CC(=O)O)c1ccc(OCC2(COc3cccc(Cl)c3)CC2)cc1 (stereo not drawn) [Example 3]  GPCR GPR40 (Rattus norvegicus)          Met
3  CC#CC(CC(=O)O)c1ccc(OCC2(COc3ccc(C(F)(F)F)cc3)CCC2)cc1 (stereo not drawn) [Example 6]  GPCR GPR40 (Rattus norvegicus)      Not met

Req: Decide: EC50 of COC(CC(=O)O)c1ccc(OCC2(COc3ccc(C(F)(F)F)cn3)CC2)cc1 (stereo not drawn) [Example 16] strictly below 700 nM?
Resp: Not met

Req: # check: EC50 < 700 nM for CC#CC(CC(=O)O)c1ccc(OCC2(COc3cccc(C)c3)CC2)cc1 (stereo not drawn) [Example 11]
Resp: Met

Req: Hi there! Is EC50 for CC#CC(CC(=O)O)c1ccc(OCC2(COc3ccccc3)CC2)cc1 (stereo not drawn) [Example 10] below 700 nM, do you know?
Resp: Met

Req: Problem: For the molecule CC#CC(CC(=O)O)c1ccc(OCC2(COc3cc(C(F)(F)F)cc(C(F)(F)F)c3)CC2)cc1 (stereo not drawn) [Example 9] , is EC50 under 700 nM?
Resp: Not met

Req: Dear colleague, could you confirm whether EC50 of CC#CC(CC(=O)O)c1ccc(OCC2(COc3ccc(C#N)c(Cl)c3)CC2)cc1 (stereo not drawn) [Example 12] falls below 700 nM? Thanks.
Resp: Met

====

Form field: log10 of EC50 (one value per entry).
molecular target: GPCR GPR40 (Rattus norvegicus, UniProt Q8K3T4); test: In vitro FLIPR assay with recombinant cells which express the GPCR GPR40; conditions: recombinant HEK293 cells expressing GPR40; agonist-induced change in intracellular Ca2+ (Fluo-4, FLIPR); 100% = 10 μM reference agonist linoleic acid
Sequence (Q8K3T4 whole entry): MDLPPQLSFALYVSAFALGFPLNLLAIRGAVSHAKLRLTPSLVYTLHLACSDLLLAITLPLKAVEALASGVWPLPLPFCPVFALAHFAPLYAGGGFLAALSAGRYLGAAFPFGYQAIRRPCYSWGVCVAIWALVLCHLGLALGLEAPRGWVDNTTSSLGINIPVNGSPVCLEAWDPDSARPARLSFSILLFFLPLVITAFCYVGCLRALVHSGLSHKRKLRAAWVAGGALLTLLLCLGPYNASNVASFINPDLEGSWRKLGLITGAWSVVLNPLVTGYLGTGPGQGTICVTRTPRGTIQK
Answers are given as log10 of EC50 in nM.

In [3]: df
Out[3]:
                                   molecule  result_number
0  CC#CC(CC(=O)O)c1ccc(OCC2(COc3ccc(F)c(Cl)c3)CC2)cc1 (stereo not drawn) [Example 22]           2.52
1  CC#CC(CC(=O)O)c1ccc(OCC2(COc3ccc(C(F)(F)F)nc3)CC2)cc1 (stereo not drawn) [Example 13]           2.85
2  CC#CC(CC(=O)O)c1ccc(OCC2(COc3cccc(F)c3)CC2)cc1 (stereo not drawn) [Example 20]           1.85
3  CC#CC(CC(=O)O)c1ccc(OCC2(COc3ccc(C(F)(F)F)cc3)CC2)cc1 (stereo not drawn) [Example 2]           2.57
4  CC#CC(CC(=O)O)c1ccc(OCC2(COc3cccc(C(C)(C)C)c3)CCC2)cc1 (stereo not drawn) [Example 5]           3.41
5  CC#CC(CC(=O)O)c1ccc(OCC2(COc3ccccc3F)CC2)cc1 (stereo not drawn) [Example 21]           2.04
6  CC#CC(CC(=O)O)c1ccc(OCC2(COc3cccc(C(C)(C)C)c3)CC2)cc1 (stereo not drawn) [Example 1]           2.86
7  CC#CC(CC(=O)O)c1ccc(OCC2(COc3ccc(F)cc3)CC2)cc1 (stereo not drawn) [Example 19]           1.85

Read the next record carefully.
Req: Please provide the recorded log10 of EC50 for CC#CC(CC(=O)O)c1ccc(OCC2(COc3ccccc3C)CC2)cc1 (stereo not drawn) [Example 18] , tested on GPCR GPR40 (Rattus norvegicus, UniProt Q8K3T4).
Resp: 1.78
